# METHOD: Inhibition of FGR (unknown origin) transfected in mouse Ba/F3 cells assessed as reduction in cell viability incubated for 48 hrs by brightglo-luciferase reporter gene assay

# MOL, IC50 (nM)
records = [
    ("COC(=O)Nc1ccc(-c2c(OC3CCN(C)CC3)nc3c(-c4ccc(OC)c(OC)c4)cnn3c2N)cc1", 440),
    ("COc1ccc(-c2cnn3c(N)c(-c4nccs4)c(OC4CCN(C)CC4)nc23)cc1OC", 4100),
    ("COc1ccc(-c2cnn3c(N)c(-c4ccccc4)c(OC4CCN(C)CC4)nc23)cc1OC", 98),
]

====

In this section, each of the compounds is paired with its reported IC50.
# METHOD: Inhibition of TRKC (unknown origin) transfected in mouse Ba/F3 cells assessed as reduction in cell viability incubated for 48 hrs by brightglo-luciferase reporter gene assay

# MOL, IC50
data = [
    ("COc1ccc(-c2cnn3c(N)c(-c4ccccc4)c(OC4CCN(C)CC4)nc23)cc1OC", "> 11000 nM"),
    ("COc1ccc(-c2cnn3c(N)c(-c4nccs4)c(OC4CCN(C)CC4)nc23)cc1OC", "500 nM"),
    ("COC(=O)Nc1ccc(-c2c(OC3CCN(C)CC3)nc3c(-c4ccc(OC)c(OC)c4)cnn3c2N)cc1", "1400 nM"),
]

====

In this section, each of the compounds is paired with its reported pIC50.
# METHOD: Inhibition of CCDC6/RET (unknown origin) transfected in human LC2/ad cells assessed as reduction in cell viability incubated for 6 days by CellTiter Glo assay
pIC50: −log10 of the molar value.
REPORTED_PROPERTY: pIC50

# MOL, REPORTED_PROPERTY, DATA_VALUE
records = [
    ("COc1ccc(-c2cnn3c(N)c(-c4ccccc4)c(NC4CCN(C)CC4)nc23)cc1OC", "pIC50", 7.25),
    ("CN1C(C)(C)CC(Nc2nc3c(-c4ccc(C(=O)N5C[C@@H]6C[C@H]5CO6)cc4)cnn3c(N)c2-c2ccccc2)CC1(C)C", "pIC50", 7.80),
    ("COc1ccc(-c2cnn3c(N)c(-c4ccccc4)c(OC4CCN(C)CC4)nc23)cc1OC", "pIC50", 7.02),
    ("COC(=O)N1CCN(C(=O)c2ccc(-c3cnn4c(N)c(-c5ccccc5)c(NC5CC(C)(C)N(C)C(C)(C)C5)nc34)cc2)CC1", "pIC50", 7.82),
]

====

In this section, each of the compounds is paired with its reported IC50.
# METHOD: Inhibition of TRKA (unknown origin) transfected in mouse Ba/F3 cells assessed as reduction in cell viability incubated for 48 hrs by brightglo-luciferase reporter gene assay

# MOL, IC50
data = [
    ("COc1ccc(-c2cnn3c(N)c(-c4nccs4)c(OC4CCN(C)CC4)nc23)cc1OC", "> 11 µM"),
    ("COC(=O)Nc1ccc(-c2c(OC3CCN(C)CC3)nc3c(-c4ccc(OC)c(OC)c4)cnn3c2N)cc1", "2.8 µM"),
    ("COc1ccc(-c2cnn3c(N)c(-c4ccccc4)c(OC4CCN(C)CC4)nc23)cc1OC", "> 11 µM"),
]

====

In this section, each of the molecules is paired with its reported IC50.
# METHOD: Inhibition of MET (unknown origin) transfected in mouse Ba/F3 cells assessed as reduction in cell viability incubated for 48 hrs by brightglo-luciferase reporter gene assay
REPORTED_PROPERTY: IC50

# MOL, DATA_VALUE
records = [
    ("COC(=O)Nc1ccc(-c2c(OC3CCN(C)CC3)nc3c(-c4ccc(OC)c(OC)c4)cnn3c2N)cc1", "> 11 µM"),
    ("COc1ccc(-c2cnn3c(N)c(-c4ccccc4)c(OC4CCN(C)CC4)nc23)cc1OC", "> 11 µM"),
    ("COc1ccc(-c2cnn3c(N)c(-c4nccs4)c(OC4CCN(C)CC4)nc23)cc1OC", "> 11 µM"),
]
